Target: T1, human FcRH5 protein fragment (soluble) (human, UniProt Q96RD9 16-851)
T1 construct: whole entry named; also called soluble human FcRH5; Human FcRH5 (BIACORE analyte)
T1 sequence: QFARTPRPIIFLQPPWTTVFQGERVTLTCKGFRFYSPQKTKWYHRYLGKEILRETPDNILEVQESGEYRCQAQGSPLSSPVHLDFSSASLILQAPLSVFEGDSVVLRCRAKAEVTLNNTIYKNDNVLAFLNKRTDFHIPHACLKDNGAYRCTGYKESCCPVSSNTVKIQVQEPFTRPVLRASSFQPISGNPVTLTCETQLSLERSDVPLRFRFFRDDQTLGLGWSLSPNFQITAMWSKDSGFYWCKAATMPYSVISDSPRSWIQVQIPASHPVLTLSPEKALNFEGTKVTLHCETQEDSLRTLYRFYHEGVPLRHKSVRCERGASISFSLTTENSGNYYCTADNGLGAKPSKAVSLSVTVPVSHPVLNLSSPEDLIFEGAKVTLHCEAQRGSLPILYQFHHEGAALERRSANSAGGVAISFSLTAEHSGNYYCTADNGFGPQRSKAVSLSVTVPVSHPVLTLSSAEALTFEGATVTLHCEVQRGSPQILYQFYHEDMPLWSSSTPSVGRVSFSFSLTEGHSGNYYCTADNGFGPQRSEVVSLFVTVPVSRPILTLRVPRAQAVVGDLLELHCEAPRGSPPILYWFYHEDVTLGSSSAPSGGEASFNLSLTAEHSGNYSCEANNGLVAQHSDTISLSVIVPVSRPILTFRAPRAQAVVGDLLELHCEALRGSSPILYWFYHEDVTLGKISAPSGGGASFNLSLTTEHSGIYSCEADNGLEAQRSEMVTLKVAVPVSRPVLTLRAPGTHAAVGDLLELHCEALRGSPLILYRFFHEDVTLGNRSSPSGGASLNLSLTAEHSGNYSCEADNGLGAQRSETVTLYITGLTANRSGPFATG
Assay: SPR, hIgG capture, screening
Measured Kd values are reported for all entries that follow.
Enter the number, and then the unit.

hu1G7.v1 heavy chain W52L with light chain of hu1G7.v1.7 (antibody, V domains shown, human IgG) VH: EVQLVESGPGLVKPSETLSLTCTVSGFSLTRFGVHWVRQPPGKGLEWLGVILRGGSTDYNAAFMSRLTISKDNSKNQVSLKLSSVTAADTAVYYCSNHYYGSSDYALDNWGQGTLVTVSS VL: DIQMTQSPSSLSASVGDRVTITCKASQDVRNLVVWFQQKPGKAPKLLIYSGYYRYTGVPSRFSGSGSGTDFTLTISSLQPEDFATYYCQQHYQPPYTFGQGTKVEIK = 130 nM

Consider the record given below.
In plain terms, hu1G7.v1 heavy chain W52Y with light chain of hu1G7.v1.4 (antibody, V domains shown, human IgG) VH: EVQLVESGPGLVKPSETLSLTCTVSGFSLTRFGVHWVRQPPGKGLEWLGVIYRGGSTDYNAAFMSRLTISKDNSKNQVSLKLSSVTAADTAVYYCSNHYYGSSDYALDNWGQGTLVTVSS VL: DIQMTQSPSSLSASVGDRVTITCKASQDVRNLVVWFQQKPGKAPKLLIYSGSYRYSGVPSRFSGSGSGTDFTLTISSLQPEDFATYYCQQHYSPPYTFGQGTKVEIK has a documented Kd of 130 nM
